# System: SARS-CoV-2
# Assay method text: Impedance-based (Maestro Z resistance/TEER) assay of SARS-CoV-2 cytopathic effect in Vero E6 monolayers
# Type: cell-based
# Measurement context: Severe acute respiratory syndrome coronavirus 2, Vero C1008; Vero E6, pre-treated 1 hour, MOI 0.01, normalized resistance at 48 hpi; read-out: 50% inhibitory concentration (IC50)
Outcome measure: pIC50
// scale note: pIC50 = -log10(conc_M); give the bare number

Short answer for "CCC(CC)COC(=O)[C@H](C)N[P@](=O)(OC[C@H]1O[C@@](C#N)(c2ccc3c(N)ncnn23)[C@H](O)[C@@H]1O)Oc1ccccc1" : pIC50 was 5.81
